assay: PFAS levels in serum samples of airport employees (LC/MS/MS); conditions: males (N=19)
Doc: threshold 30 ng/mL (exclusive). Items with Initial serum PFAS level, Max beneath it return Satisfied; others return Not satisfied.

input: Threshold test, Initial serum PFAS level, Max < 30 ng/mL: O=C(O)C(F)(F)C(F)(F)C(F)(F)C(F)(F)C(F)(F)F [PFHxA, perfluorohexanoic acid]
output: Satisfied

input: Does this compound meet the criterion Initial serum PFAS level, Max < 30 ng/mL? O=S(=O)(O)C(F)(F)C(F)(F)C(F)(F)C(F)(F)C(F)(F)F [PFPeS, perfluoropentane sulfonic acid]
output: Satisfied

input: Does the reported Initial serum PFAS level, Max of O=C(O)C(F)(F)C(F)(F)C(F)(F)C(F)(F)C(F)(F)C(F)(F)F [PFHpA, perfluoroheptanoic acid] stay below 30 ng/mL?
output: Satisfied

input: Just wondering, is Initial serum PFAS level, Max of O=S(=O)(O)C(F)(F)C(F)(F)C(F)(F)C(F)(F)C(F)(F)C(F)(F)F [PFHxS, perfluorohexane sulfonic acid] below 30 ng/mL?
output: Not satisfied

input: Answer whether the compound O=S(=O)(O)C(F)(F)C(F)(F)C(F)(F)C(F)(F)C(F)(F)C(F)(F)C(F)(F)C(F)(F)F [L-PFOS, linear perfluorooctane sulfonic acid] has Initial serum PFAS level, Max strictly less than 30 ng/mL
output: Satisfied

input: For this compound, is Initial serum PFAS level, Max lower than 30 ng/mL? O=C(O)C(F)(F)C(F)(F)C(F)(F)C(F)(F)C(F)(F)C(F)(F)C(F)(F)F [PFOA, perfluorooctanoic acid]
output: Not satisfied
